# ASSAY_SYSTEM: Wild type TGMV AL1 fused to the Gal4 DNA binding domain (pNSB736) (tomato golden mosaic virus (TGMV))
REPORTED_ENDPOINT: oligomer. (oligomerization activity relative to wild type)

For record AL1 REK154 (Ala6) fused to the Gal4 activation domain (pNSB759) (other) MPSHPKRFQINAKNYFLTYPQCSLSKEESLSQLQALNTPINKKFIKICRELHEDGQPHLHVLIQFEGKYCCQNQRFFDLVSPTRSAHFHPNIQRAKSSSDVKTYIDKDGDTLVWGEFQVDGRSARGGCQTSNDAAAEALNASSKEEALQIIAAAIPEKYLFQFHNLNSNLDRIFDKTPEPWLPPFHVSSFTNVPDEMRQWAENYFGKSSAARPERPISIIIEGDSRTGKTMWARSLGPHNYLSGHLDLNSRVYSNKVEYNVIDDVTPQYLKLKHWKELIGAQRDWQTNCKYGKPVQIKGGIPSIVLCNPGEGASYKVFLDKEENTPLKNWTFHNAKFVFLNSPLYQSSTQSS the listed oligomer. (oligomerization activity relative to wild type) is 57 relative to wild type (100)

Lab book: oligomer. (oligomerization activity relative to wild type) of AL1 FQ118 (Ala13) fused to the Gal4 activation domain (pNSB872) (other) MPSHPKRFQINAKNYFLTYPQCSLSKEESLSQLQALNTPINKKFIKICRELHEDGQPHLHVLIQFEGKYCCQNQRFFDLVSPTRSAHFHPNIQRAKSSSDVKTYIDKDGDTLVWGEAAVDGRSARGGCQTSNDAAAEALNASSKEEALQIIREKIPEKYLFQFHNLNSNLDRIFDKTPEPWLPPFHVSSFTNVPDEMRQWAENYFGKSSAARPERPISIIIEGDSRTGKTMWARSLGPHNYLSGHLDLNSRVYSNKVEYNVIDDVTPQYLKLKHWKELIGAQRDWQTNCKYGKPVQIKGGIPSIVLCNPGEGASYKVFLDKEENTPLKNWTFHNAKFVFLNSPLYQSSTQSS noted as 95 relative to wild type (100)
